target: Serine/threonine-protein kinase mTOR (Homo sapiens, UniProt P42345); assay: Inhibition of mTOR in human MDA-MB-468 cells incubated for 2.5 hrs by Alexa Fluor 488 staining based fluorescence analysis
Measured Property: IC50 (µM)
Give just the numeric value; µM need not be written.

query_smiles=CC(C)n1c(=O)n(C)c2cnc3ccc(-c4ccc(N5CC[C@@H](N(C)C)C5)nc4)cc3c21 assay_target="Serine/threonine-protein kinase mTOR (Homo sapiens, UniProt P42345)" value=3.16

Moving on to another compound below.
Under Serine/threonine-protein kinase mTOR (Homo sapiens, UniProt P42345): IC50 value of COCc1ccc(-c2ccc3ncc4c(c3c2)n([C@@H]2CCOCC2(C)C)c(=O)n4C)cn1 ? 0.501

----------
test: Unbound brain to plasma drug concentration ratio in mouse at 50 mg/kg,po administration and measured after 2 hrs; assay type: ADME, organism-based; conditions: read-out: K(p,uu,brain)
Measured Property: Kp uu at 2 h

Return reported Kp uu at 2 h; argument: Cn1c(=O)n(C2CCOCC2)c2c3cc(-c4cccnc4)ccc3ncc21 0.67

----------
target: Serine/threonine-protein kinase ATR (Homo sapiens, UniProt Q13535); test: Inhibition of ATR in human HT-29 cells incubated for 2 hrs by Alexa Fluor 488/Hoeschst staining based plate reader assay
Sequence (Q13535 whole entry): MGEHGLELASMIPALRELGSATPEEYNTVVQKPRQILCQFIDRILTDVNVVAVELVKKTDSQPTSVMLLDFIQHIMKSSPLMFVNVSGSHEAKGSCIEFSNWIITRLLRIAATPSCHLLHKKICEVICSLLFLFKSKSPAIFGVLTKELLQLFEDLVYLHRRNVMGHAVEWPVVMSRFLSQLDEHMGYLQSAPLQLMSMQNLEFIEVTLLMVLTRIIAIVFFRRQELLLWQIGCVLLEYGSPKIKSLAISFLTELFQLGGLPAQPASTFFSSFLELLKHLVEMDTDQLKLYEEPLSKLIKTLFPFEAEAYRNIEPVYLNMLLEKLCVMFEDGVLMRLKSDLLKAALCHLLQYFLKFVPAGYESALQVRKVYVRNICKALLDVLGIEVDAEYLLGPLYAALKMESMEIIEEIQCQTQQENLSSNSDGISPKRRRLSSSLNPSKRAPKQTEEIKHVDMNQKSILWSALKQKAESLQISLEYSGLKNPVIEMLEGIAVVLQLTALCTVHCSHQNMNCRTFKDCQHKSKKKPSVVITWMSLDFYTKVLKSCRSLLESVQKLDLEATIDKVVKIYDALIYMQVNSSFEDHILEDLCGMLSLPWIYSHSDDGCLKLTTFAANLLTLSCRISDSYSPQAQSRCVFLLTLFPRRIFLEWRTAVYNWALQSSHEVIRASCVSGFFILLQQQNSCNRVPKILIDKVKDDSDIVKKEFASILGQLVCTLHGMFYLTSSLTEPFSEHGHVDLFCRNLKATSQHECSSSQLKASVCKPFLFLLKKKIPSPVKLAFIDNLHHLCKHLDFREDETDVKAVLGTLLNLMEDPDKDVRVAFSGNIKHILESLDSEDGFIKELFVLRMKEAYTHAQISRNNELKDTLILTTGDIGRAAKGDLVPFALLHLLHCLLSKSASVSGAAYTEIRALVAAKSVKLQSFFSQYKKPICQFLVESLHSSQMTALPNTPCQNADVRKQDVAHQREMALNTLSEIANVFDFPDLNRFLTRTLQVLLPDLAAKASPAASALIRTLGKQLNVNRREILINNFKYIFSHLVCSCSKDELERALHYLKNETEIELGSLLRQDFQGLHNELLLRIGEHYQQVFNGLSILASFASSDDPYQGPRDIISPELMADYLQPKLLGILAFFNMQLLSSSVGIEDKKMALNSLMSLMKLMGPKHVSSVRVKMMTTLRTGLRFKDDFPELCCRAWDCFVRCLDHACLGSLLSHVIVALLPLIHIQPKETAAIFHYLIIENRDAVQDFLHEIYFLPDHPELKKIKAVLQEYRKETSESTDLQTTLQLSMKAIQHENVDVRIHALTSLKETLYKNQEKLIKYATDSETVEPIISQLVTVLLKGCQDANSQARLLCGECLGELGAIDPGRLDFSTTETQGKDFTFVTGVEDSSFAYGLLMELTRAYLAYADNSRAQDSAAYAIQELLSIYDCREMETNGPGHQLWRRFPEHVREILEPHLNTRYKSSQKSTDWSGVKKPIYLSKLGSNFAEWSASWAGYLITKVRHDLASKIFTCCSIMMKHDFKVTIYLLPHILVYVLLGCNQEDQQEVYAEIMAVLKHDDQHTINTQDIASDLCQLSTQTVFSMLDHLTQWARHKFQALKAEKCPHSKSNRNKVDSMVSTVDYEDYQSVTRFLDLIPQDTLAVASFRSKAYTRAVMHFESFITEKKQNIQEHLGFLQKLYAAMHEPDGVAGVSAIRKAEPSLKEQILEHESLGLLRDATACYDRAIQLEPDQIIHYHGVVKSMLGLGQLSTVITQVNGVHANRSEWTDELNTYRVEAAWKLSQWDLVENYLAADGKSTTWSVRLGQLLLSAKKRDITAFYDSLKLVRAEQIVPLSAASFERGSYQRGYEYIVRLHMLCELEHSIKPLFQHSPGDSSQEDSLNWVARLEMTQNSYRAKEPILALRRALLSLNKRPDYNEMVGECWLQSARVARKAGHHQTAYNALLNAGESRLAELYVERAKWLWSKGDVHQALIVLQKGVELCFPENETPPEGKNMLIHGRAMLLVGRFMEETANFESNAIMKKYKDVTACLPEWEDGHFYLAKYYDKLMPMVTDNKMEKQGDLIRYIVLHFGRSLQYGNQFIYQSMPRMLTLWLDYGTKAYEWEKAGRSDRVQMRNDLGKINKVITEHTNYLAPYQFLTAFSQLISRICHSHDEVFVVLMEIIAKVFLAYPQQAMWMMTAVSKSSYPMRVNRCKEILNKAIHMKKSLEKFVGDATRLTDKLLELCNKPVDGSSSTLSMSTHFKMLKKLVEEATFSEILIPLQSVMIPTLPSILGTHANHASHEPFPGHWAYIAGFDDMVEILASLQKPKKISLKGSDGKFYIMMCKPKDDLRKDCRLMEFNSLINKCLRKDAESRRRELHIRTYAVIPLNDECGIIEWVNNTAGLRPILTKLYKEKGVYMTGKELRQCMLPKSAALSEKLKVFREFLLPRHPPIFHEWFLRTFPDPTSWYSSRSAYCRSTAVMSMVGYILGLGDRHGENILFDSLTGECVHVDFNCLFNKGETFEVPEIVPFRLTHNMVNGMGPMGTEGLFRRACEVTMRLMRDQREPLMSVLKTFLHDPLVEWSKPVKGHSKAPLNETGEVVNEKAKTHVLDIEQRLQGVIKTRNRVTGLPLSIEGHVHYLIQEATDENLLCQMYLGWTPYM
List of IC50 values.

// solved cases for IC50 follow
query_smiles=COCc1ccc(-c2ccc3ncc4c(c3c2)n(C2CCOCC2)c(=O)n4C)cn1 measured_property=IC50 value="> 12.6 µM"
query_smiles=Cn1c(=O)n(C2CCOCC2)c2c3cc(-c4ccc(OCCCN5CCCCC5)cc4)ccc3ncc21 measured_property=IC50 value="> 15.8 µM"
query_smiles=CC(C)n1c(=O)n(C)c2cnc3ccc(-c4ccc(N5CC6(CN(C)C6)C5)nc4)cc3c21 measured_property=IC50 value="> 31.6 µM"
query_smiles=CC(C)n1c(=O)n(C)c2cnc3ccc(-c4ccc(OCCN(C)C)nc4)cc3c21 measured_property=IC50 value="> 25.1 µM"
query_smiles=CC(C)n1c(=O)n(C)c2cnc3ccc(-c4ccc(OCCCN5CC[C@H](F)C5)nc4)cc3c21 measured_property=IC50 value="> 20 µM"

Moving on to another compound below.
Under Serine/threonine-protein kinase ATR (Homo sapiens, UniProt Q13535): IC50 value of CC(C)n1c(=O)n(C)c2cnc3ccc(-c4ccc(OCCCN5CCCC5)nc4)cc3c21 ? > 31.6 µM

----------
test: Aqueous solubility of the compound in pH 7.4; type: physicochemical; details: buffer
Measured Property: solubility (µM)
Give just the numeric value; µM need not be written.

// solved cases for solubility follow
query_smiles=Cn1c(=O)n(C2CCOCC2)c2c3cc(-c4ccc(OCCCN5CCCCC5)cc4)ccc3ncc21 measured_property=solubility value=88
query_smiles=CC(C)n1c(=O)n(C)c2cnc3ccc(-c4ccc(OCCN(C)C)nc4)cc3c21 measured_property=solubility value=421
query_smiles=CC(C)n1c(=O)n(C)c2cnc3ccc(-c4ccc(N5CC[C@@H](N(C)C)C5)nc4)cc3c21 measured_property=solubility value=22

Return reported solubility; argument: CC(C)n1c(=O)n(C)c2cnc3cc(F)c(-c4ccc(N5CCC(N(C)C)CC5)nc4)cc3c21 787

----------
List of hepatocyte CLint values.
experiment: Intrinsic clearance in rat hepatocyte assessed per 10^6 cells; type: ADME, cell-based; details: hepatocytes, read-out: CLH
Give just the numeric value; µL/min/1e6 cells need not be written.

query_smiles=CC(C)n1c(=O)n(C)c2cnc3ccc(-c4ccc(OCCCN5CCCCC5)nc4)cc3c21 measurement_units="µL/min/1e6 cells" value=5.8
query_smiles=COCc1ccc(-c2ccc3ncc4c(c3c2)n([C@H]2C[C@@H](CO)C2)c(=O)n4C)cn1 measurement_units="µL/min/1e6 cells" value=20
query_smiles=CC(C)n1c(=O)n(C)c2cnc3ccc(-c4ccc(OCCCN5CC[C@H](F)C5)nc4)cc3c21 measurement_units="µL/min/1e6 cells" value=20
query_smiles=CO[C@H]1C[C@H](n2c(=O)n(C)c3cnc4ccc(-c5ccc(OCCCN6CCCCC6)nc5)cc4c32)C1 measurement_units="µL/min/1e6 cells" value=6.6
query_smiles=CC(C)n1c(=O)n(C)c2cnc3cc(F)c(-c4ccc(OCCCN(C)C)nc4)cc3c21 measurement_units="µL/min/1e6 cells" value=13
query_smiles=CC(C)n1c(=O)n(C)c2cnc3ccc(-c4ccc(OCCCN5CCC(F)CC5)nc4)cc3c21 measurement_units="µL/min/1e6 cells" value=29

Return reported hepatocyte CLint; argument: CC(C)n1c(=O)n(C)c2cnc3ccc(-c4ccc(OCCN(C)C)nc4)cc3c21 24

Return reported hepatocyte CLint; argument: CC(C)n1c(=O)n(C)c2cnc3ccc(-c4ccc(OC[C@@H]5CCN(C)C5)nc4)cc3c21 15

----------
system: MDR1, BCRP; test: Efflux ratio of apparent permeability across basolateral to apical side over apical to basolateral side in dog MDCKII-MDR1 cells overexpressing BCRP at 0.1 uM incubated for 90 mins by LC-MS/MS analysis; format: ADME, cell-based, Canis lupus familiaris, MDCK-MDR1
List of efflux ratio at […], 0.1 µM values.
In your answer, state the number alone without any accompanying words.

query_smiles=CC(C)n1c(=O)n(C)c2cnc3ccc(-c4ccc(OCCCN(C)C)nc4)cc3c21 measured_property="efflux ratio at […], 0.1 µM" value=6.3

Moving on to another compound below.
Return reported efflux ratio at […], 0.1 µM; argument: CC(C)n1c(=O)n(C)c2cnc3ccc(-c4ccc(OCCCN5CCCC5)nc4)cc3c21 2.6

----------
experiment: Volume of distribution at steady state in rat at 1 mg/kg,po or 0.5 mg/kg,iv administration measured for 24 hrs by LC-MS/MS analysis; type: ADME, organism-based; settings: in vivo
List of Vdss values.
Give just the numeric value; L/kg need not be written.

// solved cases for Vdss follow
query_smiles=CC(C)n1c(=O)n(C)c2cnc3cc(F)c(-c4ccc(OCCCN(C)C)nc4)cc3c21 value=4.1
query_smiles=COCc1ccc(-c2ccc3ncc4c(c3c2)n([C@@H]2CCOCC2(C)C)c(=O)n4C)cn1 value=1.9
query_smiles=CC(C)n1c(=O)n(C)c2cnc3ccc(-c4ccc(N5CC[C@@H](N(C)C)C5)nc4)cc3c21 value=0.6
query_smiles=CO[C@H]1C[C@H](n2c(=O)n(C)c3cnc4ccc(-c5ccc(OCCCN6CCCCC6)nc5)cc4c32)C1 value=2.4
query_smiles=CC(C)n1c(=O)n(C)c2cnc3cc(F)c(-c4ccc(OCCCN5CCCCC5)nc4)cc3c21 value=3

Moving on to another molecule below.
Return reported Vdss; argument: CN(C)CCCOc1ccc(-c2ccc3ncc4c(c3c2)n(C2CCOCC2)c(=O)n4C)cn1 4.3

----------
List of fraction unbound at 16 h values.
experiment: Plasma protein binding in human assessed as unbound fraction incubated for 16 hrs by equilibrium dialysis based UPLC-MS/MS analysis; assay type: ADME, cell-free

compound=CC(C)n1c(=O)n(C)c2cnc3cc(F)c(-c4ccc(OCCCN(C)C)nc4)cc3c21 value=0.32
compound="CC(C)n1c(=O)n(C)c2cnc3cc(F)c(-c4ccc(OCCCN5CCCCC5)nc4)cc3c21 [AZD-1390]" value=0.26

Return reported fraction unbound at 16 h; argument: CC(C)n1c(=O)n(C)c2cnc3ccc(-c4ccc(N5CC[C@@H](N(C)C)C5)nc4)cc3c21 0.07

Return reported fraction unbound at 16 h; argument: CO[C@H]1C[C@H](n2c(=O)n(C)c3cnc4ccc(-c5ccc(OCCCN6CCCCC6)nc5)cc4c32)C1 0.19

Return reported fraction unbound at 16 h; argument: COCc1ccc(-c2ccc3ncc4c(c3c2)n([C@@H]2CCOCC2(C)C)c(=O)n4C)cn1 0.08

----------
assay: Intrinsic clearance in rat hepatocyte assessed per 10^6 cells; format: ADME, cell-based; conditions: hepatocytes, read-out: CLH
Measured Property: log10 of hepatocyte CLint (log10 of the value in µL/min/1e6 cells)
Please be aware that the numbers have been log10-transformed from hepatocyte CLint in µL/min/1e6 cells.

compound=CC(C)n1c(=O)n(C)c2cnc3ccc(-c4ccc(OCCCN5CCCC5)nc4)cc3c21 value=0.26
compound=CC(C)n1c(=O)n(C)c2cnc3cc(F)c(-c4ccc(N5CCN(C)CC5)nc4)cc3c21 value=1.34
compound=CC(C)n1c(=O)n(C)c2cnc3ccc(-c4ccc(OCCCN(C)C)nc4)cc3c21 value=1.15
compound=CO[C@H]1CC[C@H](n2c(=O)n(C)c3cnc4ccc(-c5ccc(OCCCN(C)C)cc5)cc4c32)C1 value=0.94

Return reported log10 of hepatocyte CLint; argument: CC(C)n1c(=O)n(C)c2cnc3ccc(-c4ccc(N5CC[C@@H](N(C)C)C5)nc4)cc3c21 1.43

Return reported log10 of hepatocyte CLint; argument: CC(C)n1c(=O)n(C)c2cnc3ccc(-c4ccc(OCCCN(C)C)cc4)cc3c21 1.66

Return reported log10 of hepatocyte CLint; argument: CC(C)n1c(=O)n(C)c2cnc3ccc(-c4ccc(O[C@H]5CCN(C)C5)nc4)cc3c21 1.18

Return reported log10 of hepatocyte CLint; argument: COCc1ccc(-c2ccc3ncc4c(c3c2)n([C@@H]2CCOCC2(C)C)c(=O)n4C)cn1 1.08

Return reported log10 of hepatocyte CLint; argument: COCc1ccc(-c2ccc3ncc4c(c3c2)n([C@H]2CCCOC2)c(=O)n4C)cn1 1.45

Return reported log10 of hepatocyte CLint; argument: CN(C)CCCOc1ccc(-c2ccc3ncc4c(c3c2)n([C@@H]2CCCOC2)c(=O)n4C)cc1 0.91

Return reported log10 of hepatocyte CLint; argument: COCc1ccc(-c2ccc3ncc4c(c3c2)n([C@@H]2CC[C@@H](OC)C2)c(=O)n4C)cn1 (relative stereo) 1.60

Return reported log10 of hepatocyte CLint; argument: CC(C)n1c(=O)n(C)c2cnc3ccc(-c4ccc(N5CC[C@H](N(C)C)C5)nc4)cc3c21 1.40

Return reported log10 of hepatocyte CLint; argument: Cn1c(=O)n(C2CCOCC2)c2c3cc(-c4ccc(OCCCN5CCCCC5)cc4)ccc3ncc21 0.72

Return reported log10 of hepatocyte CLint; argument: CC(C)n1c(=O)n(C)c2cnc3ccc(-c4ccc(N5CC(N(C)C)C5)nc4)cc3c21 1.64
